All values here come from PubChem BioAssay (Tox21).

# Target: Nuclear receptor ROR-gamma (Homo sapiens)
# Experiment description: qHTS assay to identify small molecule antagonists of the retinoid-related orphan receptor gamma (ROR-gamma) signaling pathway (AID 1159521; note: nearly all actives have a fitted effect of over 50% in size)
# Condition details: Tet-on RORgamma CHO cells, RORE-luciferase, 16 h; series mostly up to 92.4 µM
Records with an inconclusive call do not appear. Active and inactive are the calls of the source. Calls come from the whole dose curve; as a rule, active = well fitted inhibition curve with a large enough effect in the repeat runs; inconclusive = weak or mixed curves, or effect the other way; inactive = no such curve, though single readings can be large or run the other way.
Result category, one only: 1 (active), 0 (inactive)

Field: example entries. Status: answers known.
[[record]]
compound = "COC(=O)C(C)Oc1ccc(Oc2ncc(C(F)(F)F)cc2Cl)cc1 (configuration not stated)"
answer_label = 0

[[record]]
compound = "COC(=O)c1ccc(C)cc1"
answer_label = 0


Asked: Recorded call for `CC1(C)OC(=O)NC1=O` ?
Given back: 0

Asked: Recorded call for `C=C[C@@]1(C)CC(=O)[C@]2(O)[C@@]3(C)[C@@H](O)CCC(C)(C)[C@@H]3[C@H](O)[C@H](OC(C)=O)[C@@]2(C)O1` ?
Given back: 1

Asked: Recorded call for CCC(Cc1c(I)cc(I)c(N)c1I)C(=O)O (configuration not stated) ?
Given back: 0

Asked: Recorded call for `C[C@]12C=CC(=O)C=C1CC[C@H]1[C@@H]3C[C@@H](O)[C@](O)(C(=O)CO)[C@@]3(C)C[C@H](O)[C@@]12F` ?
Given back: 0

Asked: Recorded call for `Clc1ccc(Sc2cc(Cl)c(Cl)cc2Cl)cc1` ?
Given back: 0

* * *

# Target: Progesterone receptor (Homo sapiens) (UniProt P06401)
# Sequence (P06401 whole entry, looked up): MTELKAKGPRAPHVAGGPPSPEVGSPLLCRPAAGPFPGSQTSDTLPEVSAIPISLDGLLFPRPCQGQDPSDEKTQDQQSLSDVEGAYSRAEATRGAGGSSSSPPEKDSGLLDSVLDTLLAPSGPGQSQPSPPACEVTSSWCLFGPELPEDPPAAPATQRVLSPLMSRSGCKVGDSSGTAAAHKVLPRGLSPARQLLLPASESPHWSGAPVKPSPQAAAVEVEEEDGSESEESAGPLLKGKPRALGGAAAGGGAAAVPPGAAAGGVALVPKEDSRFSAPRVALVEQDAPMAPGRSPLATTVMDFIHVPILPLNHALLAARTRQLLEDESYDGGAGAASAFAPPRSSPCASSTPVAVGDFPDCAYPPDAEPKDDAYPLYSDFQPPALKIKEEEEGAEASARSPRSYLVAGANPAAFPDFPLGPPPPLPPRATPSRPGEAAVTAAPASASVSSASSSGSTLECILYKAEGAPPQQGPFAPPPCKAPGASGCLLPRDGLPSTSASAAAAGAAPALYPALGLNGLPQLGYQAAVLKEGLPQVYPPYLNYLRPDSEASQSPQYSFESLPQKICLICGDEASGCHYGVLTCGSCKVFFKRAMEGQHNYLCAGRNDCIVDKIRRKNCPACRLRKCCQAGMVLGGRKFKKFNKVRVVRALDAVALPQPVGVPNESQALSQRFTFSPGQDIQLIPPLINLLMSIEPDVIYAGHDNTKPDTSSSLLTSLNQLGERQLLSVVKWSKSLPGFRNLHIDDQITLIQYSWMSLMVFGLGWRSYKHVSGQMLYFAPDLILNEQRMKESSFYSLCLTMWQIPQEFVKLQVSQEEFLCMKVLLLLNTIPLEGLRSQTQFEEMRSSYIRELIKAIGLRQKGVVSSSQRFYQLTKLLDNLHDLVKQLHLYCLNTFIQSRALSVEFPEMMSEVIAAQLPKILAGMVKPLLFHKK
# Experiment description: qHTS assay to identify small molecule antagonists of the progesterone receptor (PR) signaling pathway (AID 1346795)
# Condition details: PR-UAS-bla HEK293T, beta-lactamase FRET ratio, 16 h; series mostly up to 92.4 µM
Results filed as inconclusive are left out. The source made the active and inactive calls. The call rests on the fitted dose curve; in most records, active means well fitted inhibition curve with a large enough effect in the signal ratio in the repeat runs (not every such curve was filed as active); inconclusive means weak or mixed curves; inactive means flat fitted curve, though single readings scatter; the % refers to the signal ratio.
Result category, one only: Y for active, N for inactive

Field: example entries. Status: answers known.
[[record]]
compound = "IC(I)I"
target = "Progesterone receptor (Homo sapiens) (UniProt P06401)"
answer_label = "N"

[[record]]
compound = "O=C(O)c1cc(=O)[nH]c(=O)[nH]1"
target = "Progesterone receptor (Homo sapiens) (UniProt P06401)"
answer_label = "N"

[[record]]
compound = "Oc1ccc(C(c2ccc(O)cc2)C(Cl)(Cl)Cl)cc1"
target = "Progesterone receptor (Homo sapiens) (UniProt P06401)"
answer_label = "Y"


Read the next record carefully.
Asked: Recorded call for `COc1ccc2nc(N)sc2c1` ?
Given back: N

* * *

# Experiment description: A CellTox Green Cytotoxicity Assay to monitor cytotoxicity in HEK293 cells - 0 hour (AID 1224869); note: nearly all actives have a fitted effect of over 50% in size; for Cytotoxicity: % is set by controls: 0 for no effect and ±100 for the full control effect
# Condition details: CellTox Green fluorescence; series mostly up to 76.8 µM
Active and inactive are the calls of the source. Calls follow the shape of the dose curve; as a rule, active = well fitted activation curve with a large enough effect in the repeat runs; inconclusive = weak or mixed curves; inactive = flat fitted curve, though single readings scatter.
Result category, one only: yes (1) for active, no (0) for inactive

Field: example entries. Status: answers known.
[[record]]
molecule = "CCc1cccc2c3c([nH]c12)C(CC)(CC(=O)O)OCC3 (stereo not drawn)"
answer_label = "no (0)"

[[record]]
molecule = "OC[C@@H](O)[C@@H](O[C@@H]1O[C@H](CO)[C@H](O)[C@H](O)[C@H]1O)[C@H](O)[C@@H](O)CO"
answer_label = "no (0)"

[[record]]
molecule = "FC(F)(F)C(Cl)Br (stereo not drawn)"
answer_label = "no (0)"


Asked: Recorded call for `CC(C)(Oc1ccc(Cl)cc1)C(=O)O` ?
Given back: no (0)

Asked: Recorded call for `C=CCOC(=O)C(=C)C` ?
Given back: no (0)

Asked: Recorded call for `O=C1CCc2ccccc2O1` ?
Given back: no (0)

Asked: Recorded call for `NC[C@H](O)c1ccc(O)c(O)c1` ?
Given back: no (0)

Asked: Recorded call for `CCCCCCCCCCCCO` ?
Given back: no (0)

Asked: Recorded call for `CC(=O)Nc1ccc2c(c1)Cc1cc(NC(C)=O)ccc1-2` ?
Given back: no (0)

Asked: Recorded call for `c1ccc2cc3ccccc3cc2c1` ?
Given back: no (0)

Asked: Recorded call for `O=C1OC2(c3ccccc31)c1cc(I)c(O)c(I)c1Oc1c2cc(I)c(O)c1I` ?
Given back: yes (1)

* * *

# Experiment description: qHTS assay to identify small molecule agonists of the RXR signaling pathway - cell viability counter screen (AID 1159529); note: nearly all actives have a fitted effect of over 50% in size
# Condition details: RXR-alpha-bla HEK293T viability, CellTiter-Glo, 16 h; series mostly up to 76.8 µM
Results filed as inconclusive are left out. Activity calls are given as the source filed them. The call rests on the fitted dose curve; in most records, active means well fitted cell-killing curve with a large enough effect in the repeat runs; inconclusive means weak or mixed curves, or effect the other way; inactive means no such curve, though single readings can be large or run the other way.
Result category, one only: 1.0 for active, 0.0 for inactive

[[record]]
mol_smiles = "OCCNCCO"
answer_label = 0.0

[[record]]
mol_smiles = "CC1=CC(C)(C)Nc2ccccc21"
answer_label = 0.0

[[record]]
mol_smiles = "Nc1ccc2c(c1)C(=O)c1ccccc1C2=O"
answer_label = 0.0


Asked: Recorded call for `CN(C)CCCN1c2ccccc2Sc2ccc(Cl)cc21` ?
Given back: 1.0

* * *

# Experiment description: qHTS RealTime-Glo MT Cell Viability Assay in HEK293 cells - 16 hour (AID 1224872); note: nearly all actives have a fitted effect of over 50% in size
# Condition details: RealTime-Glo luminescence; series mostly up to 76.8 µM
Results filed as inconclusive are left out. Active and inactive are the calls of the source. Calls follow the shape of the dose curve; as a rule, active = well fitted cell-killing curve with a large enough effect in the repeat runs; inconclusive = weak or mixed curves, or effect the other way; inactive = flat fitted curve, though single readings scatter.
Result category, one only: active, inactive

[[record]]
molecule = "CCc1cccc2c3c([nH]c12)C(CC)(CC(=O)O)OCC3 (configuration not stated)"
answer_label = "inactive"

[[record]]
molecule = "CN1CCOCC1"
answer_label = "inactive"

[[record]]
molecule = "C=C[Si](OCCOC)(OCCOC)OCCOC"
answer_label = "inactive"

[[record]]
molecule = "Cc1ccc(C(C)(C)C)c(O)c1"
answer_label = "inactive"


Asked: Recorded call for `CC(=O)Oc1ccc(C(c2ccc(OC(C)=O)cc2)c2ccccn2)cc1` ?
Given back: inactive

Asked: Recorded call for `CN(C)/N=N/c1nc[nH]c1C(N)=O` ?
Given back: inactive

Asked: Recorded call for `CNC[C@H](O)c1ccc(O)c(O)c1` ?
Given back: inactive

Asked: Recorded call for `C=C[C@H]1CN2CC[C@H]1C[C@@H]2[C@@H](O)c1ccnc2ccc(OC)cc12` ?
Given back: active

Asked: Recorded call for `O=C1CCc2ccccc2O1` ?
Given back: inactive

Asked: Recorded call for `c1ccc2c(c1)ccc1cc3c(ccc4ccccc43)cc12` ?
Given back: inactive

Asked: Recorded call for `C=CN1CCCC1=O` ?
Given back: inactive

* * *

# Experiment description: qHTS assay to identify small molecule agonists of the vitamin D receptor (VDR) signaling pathway - cell viability counter screen (AID 743224); note: nearly all actives have a fitted effect of over 50% in size
# Condition details: VDR-bla HEK293T viability, CellTiter-Glo luminescence, 16 h; series mostly up to 62.6 µM
Inconclusive results are not listed. Activity calls are given as the source filed them. The call rests on the fitted dose curve; in most records, active means well fitted cell-killing curve with a large enough effect in the repeat runs; inconclusive means weak or mixed curves, or effect the other way; inactive means no such curve, though single readings can be large or run the other way.
Result category, one only: true = active, false = inactive

Field: example entries. Status: answers known.
[[record]]
compound = "Nc1ccc2c(O)cc(S(=O)(=O)O)cc2c1"
answer_label = "false"

[[record]]
compound = "Cc1ccc([N+](=O)[O-])c(C)c1"
answer_label = "false"

[[record]]
compound = "OCCNCCO"
answer_label = "false"

[[record]]
compound = "CC1(C)NC(=O)N(c2ccc([N+](=O)[O-])c(C(F)(F)F)c2)C1=O"
answer_label = "false"

[[record]]
compound = "NCCN"
answer_label = "false"

[[record]]
compound = "CCCCCCC(C)O (centres undefined)"
answer_label = "false"

[[record]]
compound = "CN(C)CCCN1c2ccccc2Sc2ccc(Cl)cc21"
answer_label = "true"

[[record]]
compound = "CCCN1C=CN(C)C1"
answer_label = "false"

[[record]]
compound = "OC[C@@H](O)[C@@H](O[C@@H]1O[C@H](CO)[C@H](O)[C@H](O)[C@H]1O)[C@H](O)[C@@H](O)CO"
answer_label = "false"

[[record]]
compound = "Nc1cc(Cl)c(N)c(Cl)c1"
answer_label = "false"


Asked: Recorded call for `Oc1c(Cl)ccc(Cl)c1Cl` ?
Given back: false

Asked: Recorded call for CCCCCC1C(=O)CCC1CC(=O)OC (centres undefined) ?
Given back: false

Asked: Recorded call for CCCCCCCCCCC(CO)CCCCCCCC (centres undefined) ?
Given back: false

Asked: Recorded call for `CC(=O)Nc1ccc2c(c1)Cc1cc(NC(C)=O)ccc1-2` ?
Given back: false

* * *

# Experiment description: qHTS RealTime-Glo MT Cell Viability Assay in HEK293 cells - 32 hour (AID 1224868)
# Condition details: RealTime-Glo luminescence; series mostly up to 76.8 µM
Inconclusive results are not listed. Activity calls are given as the source filed them. Calls come from the whole dose curve; as a rule, active = well fitted cell-killing curve with a large enough effect in the repeat runs; inconclusive = weak or mixed curves, or effect the other way; inactive = flat fitted curve, though single readings scatter.
Result category, one only: active, inactive

[[record]]
compound = "CC1(C)O[C@@H]2C[C@H]3[C@@H]4C[C@H](F)C5=CC(=O)C=C[C@]5(C)[C@@]4(F)[C@@H](O)C[C@]3(C)[C@]2(C(=O)CO)O1"
answer_label = "inactive"

[[record]]
compound = "CCC(=O)O[C@H]1[C@H](O[C@@H]2[C@@H](C)[C@H](O[C@H]3C[C@@](C)(OC)[C@@H](O)[C@H](C)O3)[C@@H](C)C(=O)O[C@H](CC)[C@@](C)(O)[C@H](O)[C@@H](C)C(=O)[C@H](C)C[C@@]2(C)O)O[C@H](C)C[C@@H]1N(C)C"
answer_label = "inactive"

[[record]]
compound = "CCCCCC1C(=O)CCC1CC(=O)OC (centres undefined)"
answer_label = "inactive"

[[record]]
compound = "C=CCOC(=O)C(=C)C"
answer_label = "inactive"

[[record]]
compound = "CCC/C=C/C=O"
answer_label = "inactive"


Asked: Recorded call for `CC(C)=CCO` ?
Given back: inactive

Asked: Recorded call for `Nc1ccc(O)c(N)c1` ?
Given back: inactive

Asked: Recorded call for `c1ccc2c(c1)ccc1cc3c(ccc4ccccc43)cc12` ?
Given back: inactive
